List of MFI at 33.3 nM values.
# SUBJECT OF TEST: human CTLA-4 (human) (UniProt P16410)
# Sequence (P16410 36-223): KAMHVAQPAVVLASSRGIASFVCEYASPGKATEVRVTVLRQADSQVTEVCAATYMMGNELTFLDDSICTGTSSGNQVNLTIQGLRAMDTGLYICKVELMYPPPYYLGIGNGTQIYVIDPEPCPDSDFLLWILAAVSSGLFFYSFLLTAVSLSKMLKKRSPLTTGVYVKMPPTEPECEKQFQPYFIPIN
# PROTOCOL SUMMARY: flow cytometry, CHO cells stably expressing CTLA4
// return numeric value only (unit: MFI, not printed)

- variant CD80 IgV-Fc (inert) H18F/A26N/E35D/M47V/V68M/A71G/D90K (Fc fusion) VIHVTKEVKEVATLSCGFNVSVEELNQTRIYWQKDKKMVLTMMSGDVNIWPEYKNRTIFDITNNLSIMILGLRPSDEGTYECVVLKYEKKAFKREHLAEVTLSVKAD: 15200

Dear colleague, I am looking for the recorded MFI at 33.3 nM of the following binder: CD80 E35D/D46V/M47L/V68M/L85Q/E88D IgV-Fc, EAAAK linker (Fc fusion) VIHVTKEVKEVATLSCGHNVSVEELAQTRIYWQKDKKMVLTMMSGVLNIWPEYKNRTIFDITNNLSIMILALRPSDEGTYECVVQKYDKDAFKREHLAEVTLSVKADEAAAK 29000

Report MFI at 33.3 nM for variant CD80 IgV-Fc (inert) H18V/A26Q/E35D/M47V/V68L/A71G/D90G (Fc fusion) VIHVTKEVKEVATLSCGVNVSVEELQQTRIYWQKDKKMVLTMMSGDVNIWPEYKNRTIFDITNNLSILILGLRPSDEGTYECVVLKYEKGAFKREHLAEVTLSVKAD please. 17700

Entry under review: variant CD80 IgV-Fc (inert) H18V/A26P/E35D/M47L/V68M/A71G (Fc fusion) VIHVTKEVKEVATLSCGVNVSVEELPQTRIYWQKDKKMVLTMMSGDLNIWPEYKNRTIFDITNNLSIMILGLRPSDEGTYECVVLKYEKDAFKREHLAEVTLSVKAD . Reported MFI at 33.3 nM? 16200

Consider the binder CD80 E35D/D46V/M47L/V68M/L85Q/E88D IgV-Fc, GS(G4S)5 linker (Fc fusion) VIHVTKEVKEVATLSCGHNVSVEELAQTRIYWQKDKKMVLTMMSGVLNIWPEYKNRTIFDITNNLSIMILALRPSDEGTYECVVQKYDKDAFKREHLAEVTLSVKADGSGGGGSGGGGSGGGGSGGGGSGGGGS and give its measured MFI at 33.3 nM. 26600

Bench note: what MFI at 33.3 nM did variant CD80 IgV-Fc E35D/M47L/A71G/D90G (Fc fusion) VIHVTKEVKEVATLSCGHNVSVEELAQTRIYWQKDKKMVLTMMSGDLNIWPEYKNRTIFDITNNLSIVILGLRPSDEGTYECVVLKYEKGAFKREHLAEVTLSVKAD show? 20900

Quick one: MFI at 33.3 nM for variant CD80 IgV-Fc (inert) H18L/A26N/D46E/V68M/A71G/D90G (Fc fusion) VIHVTKEVKEVATLSCGLNVSVEELNQTRIYWQKEKKMVLTMMSGEMNIWPEYKNRTIFDITNNLSIMILGLRPSDEGTYECVVLKYEKGAFKREHLAEVTLSVKAD ? 17000

For the binder shown here, variant CD80 IgV-Fc (inert) H18V/A26D/E35D/M47V/V68M/A71G/D90G (Fc fusion) VIHVTKEVKEVATLSCGVNVSVEELDQTRIYWQKDKKMVLTMMSGDVNIWPEYKNRTIFDITNNLSIMILGLRPSDEGTYECVVLKYEKGAFKREHLAEVTLSVKAD , give the reported MFI at 33.3 nM. 22100
